Target: T1, canine NGF (canine, UniProt Q29074 110-229 (pig entry), limits assumed)
T1 construct: The protein was secreted from CHO cells and purified; also called cNGF; canine β-NGF
T1 chain: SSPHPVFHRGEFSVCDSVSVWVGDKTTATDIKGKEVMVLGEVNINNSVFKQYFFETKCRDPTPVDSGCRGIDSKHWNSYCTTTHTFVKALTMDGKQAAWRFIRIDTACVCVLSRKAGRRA
Assay: SPR (Biacore T200), 100 nM mAb on NGF chip, similarity to parent mAb
The threshold is 90%. Values of Percent Similarity Score (KD on cN) beneath it are tagged 1; values meeting or exceeding it are tagged 0.

A selection of reference data follows.
Exercise: Decide: Percent Similarity Score (KD on cN) of can48L2VL_I31A (antibody, V domains shown, CDR scanning mutant of ZTS-842 (48L2)) VH: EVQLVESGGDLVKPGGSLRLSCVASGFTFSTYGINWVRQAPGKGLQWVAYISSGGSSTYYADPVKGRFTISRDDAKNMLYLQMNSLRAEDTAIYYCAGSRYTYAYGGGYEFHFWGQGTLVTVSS VL: QAVLNQPASVSGALGQKVTISCSGSTMDIDAFGVSWYQQLPGKAPKLLVDSDGDRPSGIPDRFSGSRSGNSGTLTITGLQAEDEADYHCQSGDSTLGALAIFGGGTHVTVL strictly below 90%?
Solution: 1

Exercise: Decide: Percent Similarity Score (KD on cN) of can9L12VH_T58A (antibody, V domains shown) VH: EVQLVESGGDLVKPGGSLRLSCVASGFTFSSHGMHWVRQSPGKGLQWVAVINSGGSSAYYTDAVKGRFTISRDNAKNTVYLQMNSLRAEDTAMYYCAKESVGGWEQLVGPHFDYWGQGTLVIVSS VL: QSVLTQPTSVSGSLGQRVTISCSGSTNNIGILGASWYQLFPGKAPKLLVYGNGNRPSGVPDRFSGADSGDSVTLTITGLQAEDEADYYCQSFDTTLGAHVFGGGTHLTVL strictly below 90%?
Solution: 0

Exercise: Decide: Percent Similarity Score (KD on cN) of can9L12VL_I31A (antibody, V domains shown) VH: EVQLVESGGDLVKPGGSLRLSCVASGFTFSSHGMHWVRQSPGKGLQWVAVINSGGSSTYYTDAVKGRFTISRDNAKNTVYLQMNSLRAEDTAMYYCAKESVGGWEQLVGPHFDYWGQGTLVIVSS VL: QSVLTQPTSVSGSLGQRVTISCSGSTNNIGALGASWYQLFPGKAPKLLVYGNGNRPSGVPDRFSGADSGDSVTLTITGLQAEDEADYYCQSFDTTLGAHVFGGGTHLTVL strictly below 90%?
Solution: 1

Exercise: Decide: Percent Similarity Score (KD on cN) of can48L2VL_Q90A (antibody, V domains shown, CDR scanning mutant of ZTS-842 (48L2)) VH: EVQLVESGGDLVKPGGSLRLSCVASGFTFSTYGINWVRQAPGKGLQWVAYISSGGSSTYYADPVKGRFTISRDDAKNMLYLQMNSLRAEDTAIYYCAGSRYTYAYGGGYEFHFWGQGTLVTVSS VL: QAVLNQPASVSGALGQKVTISCSGSTMDIDIFGVSWYQQLPGKAPKLLVDSDGDRPSGIPDRFSGSRSGNSGTLTITGLQAEDEADYHCASGDSTLGALAIFGGGTHVTVL strictly below 90%?
Solution: 0

Continuing:
Exercise: Decide: Percent Similarity Score (KD on cN) of can9L12VH_G26A (antibody, V domains shown) VH: EVQLVESGGDLVKPGGSLRLSCVASAFTFSSHGMHWVRQSPGKGLQWVAVINSGGSSTYYTDAVKGRFTISRDNAKNTVYLQMNSLRAEDTAMYYCAKESVGGWEQLVGPHFDYWGQGTLVIVSS VL: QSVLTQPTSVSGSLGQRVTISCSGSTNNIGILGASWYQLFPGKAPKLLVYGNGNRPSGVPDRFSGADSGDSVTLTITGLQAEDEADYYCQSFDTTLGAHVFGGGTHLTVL strictly below 90%?
Solution: 0

Exercise: Decide: Percent Similarity Score (KD on cN) of can9L12VL_L32A (antibody, V domains shown) VH: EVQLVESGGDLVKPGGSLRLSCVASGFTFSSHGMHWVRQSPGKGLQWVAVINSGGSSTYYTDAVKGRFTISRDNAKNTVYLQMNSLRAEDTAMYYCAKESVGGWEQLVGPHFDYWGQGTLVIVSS VL: QSVLTQPTSVSGSLGQRVTISCSGSTNNIGIAGASWYQLFPGKAPKLLVYGNGNRPSGVPDRFSGADSGDSVTLTITGLQAEDEADYYCQSFDTTLGAHVFGGGTHLTVL strictly below 90%?
Solution: 1

Exercise: Decide: Percent Similarity Score (KD on cN) of can9L12VH_G109A (antibody, V domains shown) VH: EVQLVESGGDLVKPGGSLRLSCVASGFTFSSHGMHWVRQSPGKGLQWVAVINSGGSSTYYTDAVKGRFTISRDNAKNTVYLQMNSLRAEDTAMYYCAKESVGGWEQLVAPHFDYWGQGTLVIVSS VL: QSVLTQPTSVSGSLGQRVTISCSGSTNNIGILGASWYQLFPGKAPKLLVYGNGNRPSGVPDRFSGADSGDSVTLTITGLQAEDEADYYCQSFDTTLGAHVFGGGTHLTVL strictly below 90%?
Solution: 0

Exercise: Decide: Percent Similarity Score (KD on cN) of can48L2VL_A100L (antibody, V domains shown, CDR scanning mutant of ZTS-842 (48L2)) VH: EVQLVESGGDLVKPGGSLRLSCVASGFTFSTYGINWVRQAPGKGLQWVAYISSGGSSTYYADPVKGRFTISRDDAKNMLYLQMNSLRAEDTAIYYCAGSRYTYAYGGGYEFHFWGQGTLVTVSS VL: QAVLNQPASVSGALGQKVTISCSGSTMDIDIFGVSWYQQLPGKAPKLLVDSDGDRPSGIPDRFSGSRSGNSGTLTITGLQAEDEADYHCQSGDSTLGALLIFGGGTHVTVL strictly below 90%?
Solution: 0

Exercise: Decide: Percent Similarity Score (KD on cN) of can9L12VH_F29A (antibody, V domains shown) VH: EVQLVESGGDLVKPGGSLRLSCVASGFTASSHGMHWVRQSPGKGLQWVAVINSGGSSTYYTDAVKGRFTISRDNAKNTVYLQMNSLRAEDTAMYYCAKESVGGWEQLVGPHFDYWGQGTLVIVSS VL: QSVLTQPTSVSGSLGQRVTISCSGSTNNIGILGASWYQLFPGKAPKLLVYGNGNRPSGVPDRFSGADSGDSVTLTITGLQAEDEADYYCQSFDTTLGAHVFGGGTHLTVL strictly below 90%?
Solution: 0

Exercise: Decide: Percent Similarity Score (KD on cN) of can9L12VH_V101A (antibody, V domains shown) VH: EVQLVESGGDLVKPGGSLRLSCVASGFTFSSHGMHWVRQSPGKGLQWVAVINSGGSSTYYTDAVKGRFTISRDNAKNTVYLQMNSLRAEDTAMYYCAKESAGGWEQLVGPHFDYWGQGTLVIVSS VL: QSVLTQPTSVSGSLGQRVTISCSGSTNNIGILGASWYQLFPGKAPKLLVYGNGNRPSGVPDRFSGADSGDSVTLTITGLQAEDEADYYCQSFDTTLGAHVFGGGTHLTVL strictly below 90%?
Solution: 1
